- Test system: MDR1
- PROTOCOL_DESCRIPTION: Apparent permeability from basolateral side to apical side in MDCK1 cells expressing MDR1
- Assay type: ADME, cell-based, Canis lupus familiaris
- CONDITION_INFO: dog, MDCK-MDR1
READOUT_LABEL: Papp B→A (×10⁻⁶ cm/s)

molecule="C[C@@H]1CN(Cc2ccccc2)c2cnccc2[C@H](C)N1C(=O)NCc1ccccc1 (racemic)" readout_label="Papp B→A" reported_value=55.8
molecule="C[C@@H]1CN(Cc2ccccc2)c2cncc(F)c2[C@H](C)N1C(=O)NCc1ccccc1 (racemic)" readout_label="Papp B→A" reported_value=61
molecule="C[C@@H]1CN(Cc2ccccc2)c2cncc(F)c2[C@H](C)N1C(=O)Nc1cccnc1 (racemic)" readout_label="Papp B→A" reported_value=53.8
molecule="CC(C)CCN1C[C@@H](C)N(C(=O)Nc2cccnc2)[C@@H](C)c2ccncc21 (racemic)" readout_label="Papp B→A" reported_value=56
molecule="COc1ccc(CNC(=O)N2[C@H](C)CN(CCC(C)C)c3cnccc3[C@@H]2C)cc1 (racemic)" readout_label="Papp B→A" reported_value=54.5

---

- TARGET_DESC: Voltage-dependent T-type calcium channel subunit alpha-1I (Homo sapiens, UniProt Q9P0X4)
- Sequence (Q9P0X4 whole entry): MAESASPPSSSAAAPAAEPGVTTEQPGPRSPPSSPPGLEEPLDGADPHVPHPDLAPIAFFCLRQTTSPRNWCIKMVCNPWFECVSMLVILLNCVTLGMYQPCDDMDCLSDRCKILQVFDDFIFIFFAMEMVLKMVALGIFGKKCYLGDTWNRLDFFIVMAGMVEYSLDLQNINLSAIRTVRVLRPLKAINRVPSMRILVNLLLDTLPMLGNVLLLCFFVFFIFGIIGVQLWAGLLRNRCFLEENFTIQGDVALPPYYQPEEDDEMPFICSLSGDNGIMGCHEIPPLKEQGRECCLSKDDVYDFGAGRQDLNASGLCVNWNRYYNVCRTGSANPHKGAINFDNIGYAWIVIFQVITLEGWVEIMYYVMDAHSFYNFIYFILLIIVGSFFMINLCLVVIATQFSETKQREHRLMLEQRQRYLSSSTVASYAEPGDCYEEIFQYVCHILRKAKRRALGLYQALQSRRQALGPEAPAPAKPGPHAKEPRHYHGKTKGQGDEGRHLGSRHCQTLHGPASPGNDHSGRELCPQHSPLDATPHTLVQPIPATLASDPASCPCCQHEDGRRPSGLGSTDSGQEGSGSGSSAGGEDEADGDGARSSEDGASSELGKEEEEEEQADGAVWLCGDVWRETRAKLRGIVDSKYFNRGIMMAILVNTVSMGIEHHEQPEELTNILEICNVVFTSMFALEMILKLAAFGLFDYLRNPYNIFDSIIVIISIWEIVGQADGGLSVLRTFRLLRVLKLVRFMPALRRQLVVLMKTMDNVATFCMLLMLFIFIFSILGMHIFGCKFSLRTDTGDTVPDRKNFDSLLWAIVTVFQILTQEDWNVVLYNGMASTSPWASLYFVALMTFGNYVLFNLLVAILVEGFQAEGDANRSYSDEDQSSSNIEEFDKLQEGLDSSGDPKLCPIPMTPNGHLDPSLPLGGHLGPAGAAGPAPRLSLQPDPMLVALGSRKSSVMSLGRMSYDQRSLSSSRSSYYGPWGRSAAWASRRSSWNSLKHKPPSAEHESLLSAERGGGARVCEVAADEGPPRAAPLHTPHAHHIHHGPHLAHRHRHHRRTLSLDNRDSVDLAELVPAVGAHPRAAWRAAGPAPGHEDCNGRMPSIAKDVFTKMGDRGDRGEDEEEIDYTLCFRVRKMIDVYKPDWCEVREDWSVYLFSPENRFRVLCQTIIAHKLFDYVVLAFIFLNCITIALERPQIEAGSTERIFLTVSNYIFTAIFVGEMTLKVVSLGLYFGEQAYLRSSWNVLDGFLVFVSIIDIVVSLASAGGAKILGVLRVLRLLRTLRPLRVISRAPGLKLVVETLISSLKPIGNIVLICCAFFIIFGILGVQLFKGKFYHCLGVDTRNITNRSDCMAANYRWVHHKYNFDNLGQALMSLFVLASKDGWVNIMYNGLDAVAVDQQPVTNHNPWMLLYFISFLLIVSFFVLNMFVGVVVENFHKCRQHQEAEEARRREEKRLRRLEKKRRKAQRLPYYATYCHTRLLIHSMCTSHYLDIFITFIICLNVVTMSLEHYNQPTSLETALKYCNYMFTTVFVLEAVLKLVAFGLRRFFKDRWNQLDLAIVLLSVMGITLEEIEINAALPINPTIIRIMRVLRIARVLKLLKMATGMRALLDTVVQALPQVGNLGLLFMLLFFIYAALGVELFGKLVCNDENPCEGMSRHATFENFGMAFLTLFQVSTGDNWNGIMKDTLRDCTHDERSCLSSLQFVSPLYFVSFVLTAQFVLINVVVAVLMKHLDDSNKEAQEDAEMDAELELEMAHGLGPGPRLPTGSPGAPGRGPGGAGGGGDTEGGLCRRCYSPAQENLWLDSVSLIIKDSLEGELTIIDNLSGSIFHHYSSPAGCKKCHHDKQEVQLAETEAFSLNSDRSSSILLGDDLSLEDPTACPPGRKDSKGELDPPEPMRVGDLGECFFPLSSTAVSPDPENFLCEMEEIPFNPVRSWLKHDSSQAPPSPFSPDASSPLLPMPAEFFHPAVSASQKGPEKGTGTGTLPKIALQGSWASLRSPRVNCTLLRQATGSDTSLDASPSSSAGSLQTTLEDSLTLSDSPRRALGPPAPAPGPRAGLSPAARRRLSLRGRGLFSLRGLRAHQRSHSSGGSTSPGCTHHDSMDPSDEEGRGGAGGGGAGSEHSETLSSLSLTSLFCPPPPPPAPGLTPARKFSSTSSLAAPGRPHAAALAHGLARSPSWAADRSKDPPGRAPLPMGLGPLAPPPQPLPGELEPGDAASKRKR
- PROTOCOL_DESCRIPTION: Channel blocking activity at recombinant human CaV 3.3 channel expressed in HEK293 cells assessed as inhibition of Ca2+ flux preincubated for 3 mins followed by CaCl2 addition by fluo-4 dye-based FLIPR assay
pIC50: −log10 of the molar value.
READOUT_LABEL: pIC50

# annotated cases, reported pIC50 shown
molecule="C[C@@H]1CN(Cc2ccccc2)c2cnccc2[C@H](C)N1C(=O)CCc1ccc(F)cc1 (racemic)" readout_label=pIC50 reported_value=7.60
molecule="C[C@@H]1CN(Cc2ccc(C(F)(F)F)o2)c2cnccc2[C@H](C)N1C(=O)NCc1ccccc1 (racemic)" readout_label=pIC50 reported_value=8.00
molecule="C[C@@H]1CN(Cc2cccc(F)c2F)c2cnccc2[C@H](C)N1C(=O)NCc1ccccc1 (racemic)" readout_label=pIC50 reported_value=7.89

[P] COc1cc2c(cc1F)N(Cc1ccccc1)C[C@@H](C)N(C(=O)Nc1cccnc1)[C@H]2C (racemic)
[Q] C[C@@H]1CN(Cc2ccccc2)c2ccccc2[C@H](C)N1C(=O)NCc1ccccc1
Q: Input pair: P , Q . Output: entry with lower pIC50. Response format: the label of the selected entry.
Ans: P
(P: 7.14, Q: 8.70)

---

- TARGET_DESC: Voltage-dependent T-type calcium channel subunit alpha-1G (Homo sapiens, UniProt O43497)
- Sequence (O43497 whole entry): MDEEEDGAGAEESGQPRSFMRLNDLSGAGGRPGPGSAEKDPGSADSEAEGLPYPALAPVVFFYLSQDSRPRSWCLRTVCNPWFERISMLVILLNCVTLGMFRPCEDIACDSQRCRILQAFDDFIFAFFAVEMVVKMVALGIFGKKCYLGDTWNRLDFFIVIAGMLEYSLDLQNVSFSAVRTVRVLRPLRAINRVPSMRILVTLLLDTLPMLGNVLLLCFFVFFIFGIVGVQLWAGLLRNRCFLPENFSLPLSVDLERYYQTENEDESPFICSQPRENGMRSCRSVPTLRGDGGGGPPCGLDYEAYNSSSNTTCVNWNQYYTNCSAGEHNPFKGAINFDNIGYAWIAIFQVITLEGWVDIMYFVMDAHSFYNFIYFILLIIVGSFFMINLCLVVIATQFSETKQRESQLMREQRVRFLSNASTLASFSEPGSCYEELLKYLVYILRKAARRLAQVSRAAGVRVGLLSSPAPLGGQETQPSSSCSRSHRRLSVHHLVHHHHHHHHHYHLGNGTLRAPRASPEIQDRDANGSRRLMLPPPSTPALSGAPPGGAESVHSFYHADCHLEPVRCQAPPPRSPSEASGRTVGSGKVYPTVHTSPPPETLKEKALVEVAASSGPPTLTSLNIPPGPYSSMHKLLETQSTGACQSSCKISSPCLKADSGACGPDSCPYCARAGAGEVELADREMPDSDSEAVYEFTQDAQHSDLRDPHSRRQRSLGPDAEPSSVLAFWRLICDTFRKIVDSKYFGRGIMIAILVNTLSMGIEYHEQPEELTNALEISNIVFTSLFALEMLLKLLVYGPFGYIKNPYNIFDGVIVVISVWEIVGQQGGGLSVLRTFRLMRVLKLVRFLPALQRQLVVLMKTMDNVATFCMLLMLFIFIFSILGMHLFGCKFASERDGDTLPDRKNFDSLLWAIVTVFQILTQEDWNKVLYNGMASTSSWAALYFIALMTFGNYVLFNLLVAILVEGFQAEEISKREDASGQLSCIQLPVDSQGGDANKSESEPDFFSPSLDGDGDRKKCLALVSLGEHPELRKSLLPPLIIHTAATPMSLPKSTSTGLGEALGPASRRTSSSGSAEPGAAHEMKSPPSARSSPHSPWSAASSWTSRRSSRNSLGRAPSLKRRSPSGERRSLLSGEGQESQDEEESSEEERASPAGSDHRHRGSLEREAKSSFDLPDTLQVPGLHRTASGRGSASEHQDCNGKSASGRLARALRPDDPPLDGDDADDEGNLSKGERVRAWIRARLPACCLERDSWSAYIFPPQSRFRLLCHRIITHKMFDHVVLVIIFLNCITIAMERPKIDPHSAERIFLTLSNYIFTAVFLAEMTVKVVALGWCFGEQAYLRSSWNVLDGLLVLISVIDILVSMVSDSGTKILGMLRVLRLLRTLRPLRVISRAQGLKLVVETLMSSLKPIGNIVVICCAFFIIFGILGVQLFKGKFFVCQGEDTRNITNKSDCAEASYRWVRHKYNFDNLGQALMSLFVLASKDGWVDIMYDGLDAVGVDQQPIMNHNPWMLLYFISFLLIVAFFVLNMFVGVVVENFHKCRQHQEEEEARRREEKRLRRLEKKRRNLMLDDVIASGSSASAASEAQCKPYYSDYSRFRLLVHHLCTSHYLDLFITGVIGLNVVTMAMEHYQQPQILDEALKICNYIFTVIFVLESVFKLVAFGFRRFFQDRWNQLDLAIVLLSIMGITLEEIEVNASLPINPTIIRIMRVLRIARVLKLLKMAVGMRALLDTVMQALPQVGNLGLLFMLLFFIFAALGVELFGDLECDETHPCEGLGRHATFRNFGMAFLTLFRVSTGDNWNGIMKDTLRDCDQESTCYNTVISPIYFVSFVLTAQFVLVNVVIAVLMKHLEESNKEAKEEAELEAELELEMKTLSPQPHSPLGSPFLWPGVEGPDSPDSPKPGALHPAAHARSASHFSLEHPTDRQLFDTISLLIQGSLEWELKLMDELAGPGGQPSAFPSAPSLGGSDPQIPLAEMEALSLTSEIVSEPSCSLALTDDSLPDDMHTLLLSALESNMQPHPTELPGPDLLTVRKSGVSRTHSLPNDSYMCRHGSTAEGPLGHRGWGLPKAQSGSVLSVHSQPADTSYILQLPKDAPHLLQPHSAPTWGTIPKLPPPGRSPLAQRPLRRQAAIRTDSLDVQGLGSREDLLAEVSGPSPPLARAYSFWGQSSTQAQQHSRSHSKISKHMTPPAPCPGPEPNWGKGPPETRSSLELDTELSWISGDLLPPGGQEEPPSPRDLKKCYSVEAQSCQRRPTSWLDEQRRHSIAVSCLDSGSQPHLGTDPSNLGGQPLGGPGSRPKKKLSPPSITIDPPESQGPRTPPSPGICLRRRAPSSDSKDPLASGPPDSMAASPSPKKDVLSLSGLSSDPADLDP
- PROTOCOL_DESCRIPTION: Channel blocking activity at recombinant human CaV 3.1 channel expressed in HEK293 cells assessed as inhibition of Ca2+ flux preincubated for 3 mins followed by CaCl2 addition by fluo-4 dye-based FLIPR assay
pIC50: −log10 of the molar value.
READOUT_LABEL: pIC50

[P] C[C@@H]1CN(Cc2ccc(F)cc2)c2ccccc2[C@H](C)N1C(=O)Nc1cccnc1 (racemic)
[Q] C[C@@H]1CN(CC2CCCCO2)c2ccccc2[C@H](C)N1C(=O)Nc1cccnc1 (mixture of isomers)
[R] C[C@@H]1CN(Cc2ccccc2)c2ncc(F)cc2[C@H](C)N1C(=O)NCc1ccccc1 (racemic)
[S] Cc1ccc2c(c1)N(Cc1ccccc1)C[C@@H](C)N(C(=O)Nc1cccnc1)[C@H]2C (racemic)
Q: Going from lowest to highest recorded pIC50, rank the entries listed above. Record the ranking as a list of labels in the requested order.
Ans: Q, S, R, P
(Q: 6.06, S: 6.64, R: 7.19, P: 7.60)

---

- TARGET_DESC: Voltage-dependent T-type calcium channel subunit alpha-1I (Homo sapiens)
- PROTOCOL_DESCRIPTION: Channel blocking activity at recombinant human CaV 3.3 channel expressed in HEK293 cells assessed as inhibition of Ca2+ flux preincubated for 3 mins followed by CaCl2 addition by fluo-4 dye-based FLIPR assay
pIC50: −log10 of the molar value.
READOUT_LABEL: pIC50

# annotated cases, reported pIC50 shown
compound="C[C@@H]1CN(Cc2ccccc2)c2cnccc2[C@H](C)N1C(=O)NCc1ccccc1 (racemic)" reported_value=7.60
compound="C[C@@H]1CN(Cc2ccccc2)c2cnccc2[C@H](C)N1C(=O)Nc1cccnc1 (racemic)" reported_value=6.51
compound="C[C@@H]1CN(Cc2ccccc2)c2cccc(F)c2[C@H](C)N1C(=O)CCc1cccnc1 (racemic)" reported_value=7.77
compound="COc1ccc2c(c1)[C@H](C)N(C(=O)Nc1cccnc1)[C@H](C)CN2Cc1ccccc1 (racemic)" reported_value=7.00

[a] C[C@@H]1CN(Cc2ccccc2)c2ncc(Cl)cc2[C@H](C)N1C(=O)NCc1ccccc1 (racemic)
[b] C[C@@H]1CN(Cc2ccccc2)c2cncnc2[C@H](C)N1C(=O)NCc1ccccc1 (racemic)
[c] C[C@@H]1CN(c2ccccc2)c2ccccc2[C@H](C)N1C(=O)NCc1ccccc1 (racemic)
[d] C[C@@H]1CN(Cc2cccc(F)c2F)c2ccccc2[C@H](C)N1C(=O)NCc1ccccc1 (racemic)
Q: Arrange by pIC50, high to low. Record the ranking as a list of labels in the requested order.
Ans: d, a, c, b
(d: 8.40, a: 7.34, c: 6.65, b: 6.00)

---

- PROTOCOL_DESCRIPTION: Solubility of the compound at pH 7
- Format: physicochemical
- CONDITION_INFO: buffer
READOUT_LABEL: solubility (µg/mL)

# annotated cases, reported solubility shown
compound="C[C@@H]1CN(CCOC(C)(C)C)c2ccccc2[C@H](C)N1C(=O)Nc1cccnc1 (racemic)" reported_value=81
compound="C[C@@H]1CN(Cc2ccccc2)c2cncc(F)c2[C@H](C)N1C(=O)Nc1cccnc1 (racemic)" reported_value=177
compound="COc1ccc(CNC(=O)N2[C@H](C)CN(CCC(C)C)c3cnccc3[C@@H]2C)cc1 (racemic)" reported_value=9
compound="CC(C)CCN1C[C@@H](C)N(C(=O)Nc2cccnc2)[C@@H](C)c2ccncc21 (racemic)" reported_value=309

[A] C[C@@H]1CN(Cc2ccccc2)c2cnccc2[C@H](C)N1C(=O)NCc1ccccc1 (racemic)
[B] COCCC(=O)N1[C@H](C)CN(Cc2ccccc2)c2ccccc2[C@@H]1C (racemic)
Q: When A and B are compared, which has the higher number for solubility? Response format: the label of the selected entry.
Ans: A

---

- PROTOCOL_DESCRIPTION: Cmax in Wistar rat at 100 mg/kg administered through oral gavage up to 24 hrs by LC-MS-MS analysis
- Assay type: ADME, organism-based
- Design: dose 100 mg/kg, route oral
- CONDITION_INFO: in vivo
READOUT_LABEL: Cmax (ng/mL)
# number only, unit ng/mL dropped from output

Q: Give the value of Cmax reported for the following: C[C@@H]1CN(Cc2ccccc2)c2cnccc2[C@H](C)N1C(=O)NCc1ccccc1 (racemic)
Ans: 5440

---

- TARGET_DESC: Voltage-dependent T-type calcium channel subunit alpha-1I (Homo sapiens)
- PROTOCOL_DESCRIPTION: Channel blocking activity at recombinant human CaV 3.3 channel expressed in HEK293 cells assessed as inhibition of Ca2+ flux preincubated for 3 mins followed by CaCl2 addition by fluo-4 dye-based FLIPR assay
pIC50: −log10 of the molar value.
READOUT_LABEL: pIC50

compound="CC(C)CCN1C[C@@H](C)N(C(=O)Nc2cccnc2)[C@@H](C)c2ccncc21 (racemic)" readout_label=pIC50 reported_value=6.60
compound="C[C@@H]1CN(CC2CCCCO2)c2ccccc2[C@H](C)N1C(=O)Nc1cccnc1 (mixture of isomers)" readout_label=pIC50 reported_value=6.61
compound="C[C@@H]1C(=O)N(Cc2ccccc2)c2ccccc2[C@H](C)N1C(=O)NCc1ccccc1 (racemic)" readout_label=pIC50 reported_value=6.59

---

- TARGET_DESC: Voltage-dependent T-type calcium channel subunit alpha-1I (Homo sapiens)
- PROTOCOL_DESCRIPTION: Channel blocking activity at recombinant human CaV 3.3 channel expressed in HEK293 cells assessed as inhibition of Ca2+ flux preincubated for 3 mins followed by CaCl2 addition by fluo-4 dye-based FLIPR assay
pIC50: −log10 of the molar value.
READOUT_LABEL: pIC50

compound="C[C@@H]1CN(Cc2ccccc2)c2ncccc2[C@H](C)N1C(=O)NCc1ccccc1 (racemic)" target_desc="Voltage-dependent T-type calcium channel subunit alpha-1I (Homo sapiens)" reported_value=8.10
compound="CC(C)CCN1C[C@@H](C)N(C(=O)Nc2cccnc2)[C@@H](C)c2ccccc21 (racemic)" target_desc="Voltage-dependent T-type calcium channel subunit alpha-1I (Homo sapiens)" reported_value=7.92

[A] C[C@@H]1CN(CCOC(C)(C)C)c2ccccc2[C@H](C)N1C(=O)NCc1ccccc1 (racemic)
[B] C[C@@H]1CN(Cc2ccccc2)c2ccccc2[C@H](C)N1C(=O)CN1CCOCC1 (racemic)
Q: Input pair: A , B . Output: entry with lower pIC50. Response format: the label of the selected entry.
Ans: A

Data provenance: ChEMBL document CHEMBL3864167
